- Test system: Saccharomyces cerevisiae
- Test protocol: protein stability index of tFT-peptide fusion (C-terminal peptide) (PSI (0-1 scale)); higher = more stable (slower turnover)
- Condition notes: genetic background: das1 deletion; temperature: 30 C
Items are presented alongside their recorded protein stability index.

Record sequence: VGDVVWFGVGAG
Target or test system: Saccharomyces cerevisiae
protein stability index: 0.662
--
Record sequence: GELDVRKLLKYF
Target or test system: Saccharomyces cerevisiae
protein stability index: 0.669
--
Record sequence: KIHILVVQIATR
Target or test system: Saccharomyces cerevisiae
protein stability index: 0.0541
--
Record sequence: CLFFLVYELSIL
Target or test system: Saccharomyces cerevisiae
protein stability index: 0.257
--
Record sequence: GGGAGVVWVRLG
Target or test system: Saccharomyces cerevisiae
protein stability index: 0.642
--
Record sequence: SLFPHIFFFFFA
Target or test system: Saccharomyces cerevisiae
protein stability index: 0.386
--
Record sequence: WFCCAQRGVIVG
Target or test system: Saccharomyces cerevisiae
protein stability index: 0.336
--
Record sequence: LRRVHRIKLQVC
Target or test system: Saccharomyces cerevisiae
protein stability index: 0.288
--
Record sequence: YGHLPLLVLFCV
Target or test system: Saccharomyces cerevisiae
protein stability index: 0.352
--
Record sequence: LRVPCPPCCVFV
Target or test system: Saccharomyces cerevisiae
protein stability index: 0.616
--
Record sequence: GVVRKLCHWVVA
Target or test system: Saccharomyces cerevisiae
protein stability index: 0.362
--
Record sequence: VLVVRVLLSDLV
Target or test system: Saccharomyces cerevisiae
protein stability index: 0.18
--
Record sequence: PVGLMKRFRLFI
Target or test system: Saccharomyces cerevisiae
protein stability index: 0.615
--
Record sequence: PCVPRLLPLQLS
Target or test system: Saccharomyces cerevisiae
protein stability index: 0.655
--
Record sequence: RNKIWCTVIMRL
Target or test system: Saccharomyces cerevisiae
protein stability index: 0.453
--
Record sequence: FVVQSLNQMRLN
Target or test system: Saccharomyces cerevisiae
protein stability index: 0.656
--
Record sequence: IVSFRLDLSLAV
Target or test system: Saccharomyces cerevisiae
protein stability index: 0.452
--
Record sequence: NDVGGYFYVCSE
Target or test system: Saccharomyces cerevisiae
protein stability index: 0.641
--
Record sequence: DLFVFFVFHFFL
Target or test system: Saccharomyces cerevisiae
protein stability index: 0.372

* * *

- Tested on: Saccharomyces cerevisiae
- Test protocol: protein stability index of tFT-peptide fusion (C-terminal peptide) (PSI (0-1 scale)); higher = more stable (slower turnover)
- Condition notes: genetic background: wild type; temperature: 30 C
Please mark fulfilled if the recorded protein stability index is equal to or greater than 0.6, and not fulfilled if it falls below.

Record sequence: PPPLPPPTPLSP
Target or test system: Saccharomyces cerevisiae
Assigned class: not fulfilled
--
Record sequence: ASPSYLFFLLPC
Target or test system: Saccharomyces cerevisiae
Assigned class: not fulfilled
--
Record sequence: PPLSPPPLPAAP
Target or test system: Saccharomyces cerevisiae
Assigned class: fulfilled
--
Record sequence: GRGGGEEEEEER
Target or test system: Saccharomyces cerevisiae
Assigned class: fulfilled
--
Record sequence: DASGGKKVSRGT
Target or test system: Saccharomyces cerevisiae
Assigned class: not fulfilled
--
Record sequence: WYFSSPPPFFSP
Target or test system: Saccharomyces cerevisiae
Assigned class: fulfilled
--
Record sequence: ATKKRKKKNKQT
Target or test system: Saccharomyces cerevisiae
Assigned class: fulfilled
--
Record sequence: LIRFFSSSRPGS
Target or test system: Saccharomyces cerevisiae
Assigned class: fulfilled
--
Record sequence: YWGGWCGGWEIG
Target or test system: Saccharomyces cerevisiae
Assigned class: fulfilled
--
Record sequence: VVFEVFLTHMSM
Target or test system: Saccharomyces cerevisiae
Assigned class: fulfilled
--
Record sequence: LEFEIYHSECTV
Target or test system: Saccharomyces cerevisiae
Assigned class: fulfilled
--
Record sequence: IRKLDIIFLSES
Target or test system: Saccharomyces cerevisiae
Assigned class: fulfilled
--
Record sequence: SEGLFSVLYIWM
Target or test system: Saccharomyces cerevisiae
Assigned class: fulfilled
--
Record sequence: LSRTPLPLPPPS
Target or test system: Saccharomyces cerevisiae
Assigned class: fulfilled
--
Record sequence: GLCGVCLVRCVG
Target or test system: Saccharomyces cerevisiae
Assigned class: not fulfilled
--
Record sequence: SGKKERQKTEEE
Target or test system: Saccharomyces cerevisiae
Assigned class: fulfilled
--
Record sequence: GGIGVGGGHMLL
Target or test system: Saccharomyces cerevisiae
Assigned class: fulfilled
--
Record sequence: ATTPPSSLFGPL
Target or test system: Saccharomyces cerevisiae
Assigned class: fulfilled
--
Record sequence: FISVFYMLFPYR
Target or test system: Saccharomyces cerevisiae
Assigned class: fulfilled
--
Record sequence: AAVLSYLKHLFV
Target or test system: Saccharomyces cerevisiae
Assigned class: fulfilled
--
Record sequence: PAPLPPRPTSLP
Target or test system: Saccharomyces cerevisiae
Assigned class: fulfilled
--
Record sequence: YHECWRTFTLCV
Target or test system: Saccharomyces cerevisiae
Assigned class: not fulfilled
--
Record sequence: HPPPVLSPPLSP
Target or test system: Saccharomyces cerevisiae
Assigned class: fulfilled
--
Record sequence: SQLGRPSLHPVR
Target or test system: Saccharomyces cerevisiae
Assigned class: fulfilled
--
Record sequence: GCGSGGLGGWRW
Target or test system: Saccharomyces cerevisiae
Assigned class: fulfilled
--
Record sequence: LFVMVSVSGLVV
Target or test system: Saccharomyces cerevisiae
Assigned class: not fulfilled
--
Record sequence: EKIKKTEKNKNK
Target or test system: Saccharomyces cerevisiae
Assigned class: fulfilled
--
Record sequence: LLLPPRPPPSVP
Target or test system: Saccharomyces cerevisiae
Assigned class: fulfilled
--
Record sequence: WLFASCVFFWSS
Target or test system: Saccharomyces cerevisiae
Assigned class: not fulfilled
--
Record sequence: PSSPPPPSATPP
Target or test system: Saccharomyces cerevisiae
Assigned class: fulfilled
--
Record sequence: LLPLTWTTVQGP
Target or test system: Saccharomyces cerevisiae
Assigned class: fulfilled
--
Record sequence: IFSFRWVLPFWL
Target or test system: Saccharomyces cerevisiae
Assigned class: not fulfilled
--
Record sequence: LGVVSCAVVGFV
Target or test system: Saccharomyces cerevisiae
Assigned class: fulfilled
--
Record sequence: SRRCGLFVFILF
Target or test system: Saccharomyces cerevisiae
Assigned class: not fulfilled
--
Record sequence: VGGCRVLCVGLG
Target or test system: Saccharomyces cerevisiae
Assigned class: fulfilled
--
Record sequence: PFLLLVSPISSC
Target or test system: Saccharomyces cerevisiae
Assigned class: not fulfilled
--
Record sequence: KGETRLTSARLI
Target or test system: Saccharomyces cerevisiae
Assigned class: fulfilled
--
Record sequence: PPPNSPPRPPLS
Target or test system: Saccharomyces cerevisiae
Assigned class: fulfilled
--
Record sequence: RVHFLIVFLCRF
Target or test system: Saccharomyces cerevisiae
Assigned class: not fulfilled

* * *

Items are presented alongside their recorded protein stability index.
- Test system: Saccharomyces cerevisiae
- Test protocol: protein stability index of tFT-peptide fusion (C-terminal peptide) (PSI (0-1 scale)); higher = more stable (slower turnover)
- Condition notes: genetic background: wild type; temperature: 30 C

Record sequence: WSWVFVVLRFGR
protein stability index: 0.527

Record sequence: RAGGGAWAGGVA
protein stability index: 0.708

Record sequence: GAGGVGVTSGGK
protein stability index: 0.668

Record sequence: WDPEVVHRLWLN
protein stability index: 0.237

Record sequence: GGGLGGGWGVWG
protein stability index: 0.657

Record sequence: EGVAGEWRGMEM
protein stability index: 0.65

Record sequence: IGVRSTRFCAIR
protein stability index: 0.655

Record sequence: PSRRPAVLPPLI
protein stability index: 0.672

Record sequence: WWGLGGREPGGS
protein stability index: 0.711

Record sequence: DFWMLLFGIIFA
protein stability index: 0.449

Record sequence: HIHHVPGPHITA
protein stability index: 0.706

Record sequence: VLFLLLFVSRVA
protein stability index: 0.331

Record sequence: PPDAPPMPPPQH
protein stability index: 0.738

Record sequence: PFALADSDGDSK
protein stability index: 0.683

Record sequence: VGDVGESMWGLG
protein stability index: 0.727

Record sequence: GGGNRMRENGRE
protein stability index: 0.667

Record sequence: QVLIKKRNIKKK
protein stability index: 0.651

Record sequence: VAVWGGSGDWGR
protein stability index: 0.729

Record sequence: VRGGVSWGMRGG
protein stability index: 0.634

* * *

Items are presented alongside their recorded protein stability index.
- Tested on: Saccharomyces cerevisiae
- Test protocol: protein stability index of tFT-peptide fusion (C-terminal peptide) (PSI (0-1 scale)); higher = more stable (slower turnover)
- Condition notes: genetic background: das1 deletion; temperature: 30 C
Measurement label: protein stability index

Record sequence: YAKFGDNINLER [GIM3 C-terminal 12 aa]
Target or test system: Saccharomyces cerevisiae
Measurement label: protein stability index
Value observed: 0.702
--
Record sequence: TKLGEQRHLCTD [ESL2 C-terminal 12 aa]
Target or test system: Saccharomyces cerevisiae
Measurement label: protein stability index
Value observed: 0.698
--
Record sequence: QGQKFIHDNNTN [YMR245W C-terminal 12 aa]
Target or test system: Saccharomyces cerevisiae
Measurement label: protein stability index
Value observed: 0.673
--
Record sequence: VEGKNAAASGSA [LEU4 C-terminal 12 aa]
Target or test system: Saccharomyces cerevisiae
Measurement label: protein stability index
Value observed: 0.709
--
Record sequence: ENNDNDDNDGLF [CTR9 C-terminal 12 aa]
Target or test system: Saccharomyces cerevisiae
Measurement label: protein stability index
Value observed: 0.707
--
Record sequence: TPSKEINFDDDF [RNR4 C-terminal 12 aa]
Target or test system: Saccharomyces cerevisiae
Measurement label: protein stability index
Value observed: 0.72
--
Record sequence: LWDNKPVEKKRQ [SHH4 C-terminal 12 aa]
Target or test system: Saccharomyces cerevisiae
Measurement label: protein stability index
Value observed: 0.712
--
Record sequence: EREGGDEHDDMA [PWP1 C-terminal 12 aa]
Target or test system: Saccharomyces cerevisiae
Measurement label: protein stability index
Value observed: 0.684
--
Record sequence: KLRAKRLAKGGR [RPG1 C-terminal 12 aa]
Target or test system: Saccharomyces cerevisiae
Measurement label: protein stability index
Value observed: 0.696
--
Record sequence: VPLGPKPDISRL [GTO1 C-terminal 12 aa]
Target or test system: Saccharomyces cerevisiae
Measurement label: protein stability index
Value observed: 0.705
--
Record sequence: SGYDYFDVSVSG [YAT1 C-terminal 12 aa]
Target or test system: Saccharomyces cerevisiae
Measurement label: protein stability index
Value observed: 0.71
--
Record sequence: FYVCYQLYHLVF [DPM1 C-terminal 12 aa]
Target or test system: Saccharomyces cerevisiae
Measurement label: protein stability index
Value observed: 0.355
